- System: JEG-3
- METHOD_DESCRIPTION: Primary qHTS to identify gynecologic anti-cancer compounds using libraries of approved drugs and bioactive compounds (AID 1345084); further: on the % scale 0 is the no-effect control and ±100 the full control effect; nearly all actives have a fitted effect of over 55% in size
- CONDITION_DESCRIPTION: Gynecologic cancer cell panel viability, ATPlite luminescence, 48 h; series mostly up to 57.5 µM
Inconclusive results are not listed. The source made the active and inactive calls. The call rests on the fitted dose curve; in most records, active means well fitted cell-killing curve with a large enough effect; inconclusive means small, poorly fitted or top-dose-only effect, or effect the other way; inactive means flat fitted curve, though single readings scatter.
TEST_READOUT: activity change, negative = cytotoxicity

Reference set, count: 4
C[C@@H]1O[C@@H](O[C@H]2[C@H](O)[C@@H](O)[C@H](OC[C@H]3O[C@@H](OC(=O)[C@]45CCC(C)(C)C[C@H]4C4=CCC6[C@@]7(C)C[C@H](O)[C@H](O[C@@H]8O[C@H](CO)[C@@H](O)[C@H](O)[C@H]8O)[C@@](C)(C(=O)O)C7CC[C@@]6(C)[C@]4(C)CC5)[C@H](O[C@@H]4O[C@H](CO)[C@@H](O)[C@H](O)[C@H]4O)[C@@H](O)[C@@H]3O)O[C@@H]2CO)[C@H](O)[C@H](O)[C@H]1O (stereo partly drawn) :: -3.92% [at 6.55 µM] (inactive)
CC(C)CC(=O)OC[C@H]1O[C@@](COC(=O)CC(C)C)(O[C@H]2O[C@H](CO)[C@@H](O)[C@H](O)[C@H]2O)[C@@H](OC(=O)CC(C)C)[C@@H]1OC(=O)CC(C)C :: inactive
COc1cc(C2Oc3c(O)cc(CCCO)cc3C2CO)ccc1O[C@H]1O[C@H](C)[C@@H](O)[C@H](O)[C@@H]1O (stereo partly drawn) :: inactive
CN1C(=O)N[C@@H](Cc2c[nH]c3c(Cl)cccc23)C1=O :: inactive

response.value for CC1(C)CCCC2(C)C(CO)C3CCC2C31 (stereo not drawn) (field: activity change, negative = cytotoxicity) = inactive

response.value for CC(=O)C1CCC2(C)C3=C(CCC12C)C1(C)CCC(=O)C(C)(C)C1CC3 (stereo not drawn) (field: activity change, negative = cytotoxicity) = inactive

response.value for Oc1ccc([C@H]2COc3cc(O)ccc3C2)cc1 (field: activity change, negative = cytotoxicity) = inactive

----------
- System: Zika virus NS2B-NS3 protease (linked construct)
- METHOD_DESCRIPTION: Primary screen NINDS Rhodamine qHTS for Zika virus inhibitors (AID 1347160); further: nearly all actives have a fitted effect of over 55% in size
- CONDITION_DESCRIPTION: purified NS2B-NS3 protease, Rhodamine110 substrate fluorescence; series mostly up to 57.1 µM
Results filed as inconclusive are left out. Activity calls are given as the source filed them. Calls follow the shape of the dose curve; as a rule, active = well fitted inhibition curve with a large enough effect; inconclusive = small, poorly fitted or top-dose-only effect; inactive = no such curve, though single readings can be large or run the other way.
Result category, one only: class 1 for active, class 0 for inactive

C[C@H]1[C@H](C)CC[C@]2(C(=O)O[C@@H]3O[C@H](CO)[C@@H](O)[C@H](O)[C@H]3O)CC[C@]3(C(=O)O)C(=CCC4[C@@]5(C)CC[C@H](O[C@@H]6O[C@H](CO)[C@@H](O)[C@H](O)[C@H]6O)C(C)(C)C5CC[C@]43C)[C@H]12 (stereo partly specified) :: class 0
CC1(CO)CC2C(O)C(=O)C3(CO)CC3(C)C2C1 (stereo unspecified) :: class 0
C=C1C(O[C@@H]2O[C@H](CO)[C@@H](O)[C@H](O)[C@@H]2O)CC2C(C)(C)C(O)CCC2(C)C1CC/C(C)=C\CO (stereo partly specified) :: class 0
CC(C)CC(=O)OC[C@H]1O[C@@](COC(=O)CC(C)C)(O[C@H]2O[C@H](CO)[C@@H](O)[C@H](O)[C@H]2OC(=O)CC(C)C)[C@@H](OC(=O)CC(C)C)[C@@H]1O :: class 0
COC(=O)[C@@]1(O)C=CC[C@@H]2[C@@]3(C)C[C@@H](c4ccoc4)OC(=O)[C@H]3CC[C@]21C :: class 0

Just curious, what result did Cc1c(N2C(=O)c3ccc(C(=O)O)cc3C2=O)c(=O)n(-c2ccccc2)n1C get here?
class 0

Just curious, what result did CC(=O)OC(CSC1CCC(=O)OC(C)CCC(=O)C1)C(=O)O (stereo unspecified) get here?
class 0

Just curious, what result did CC(NC(=O)CC(=O)O)c1nc2ccccc2c(=O)[nH]1 (stereo unspecified) get here?
class 1

Just curious, what result did CC(C)c1cc2c(c(O)c1O[C@@H]1O[C@H](CO)[C@@H](O)[C@H](O)[C@H]1O)CC1(O)CCC(O)C(C)(C)C1CC2 (stereo partly specified) get here?
class 1

Just curious, what result did CC(=O)OCCC(C)CCC1C(C)(O)CCC2C(C)(C)CCCC21C (stereo unspecified) get here?
class 1

Just curious, what result did COc1ccccc1-n1c(SCC(=O)Nc2nc3ccc(C)cc3s2)nc2c(c1=O)SCC2 get here?
class 0

Just curious, what result did OC[C@H]1O[C@@H](Oc2ccc(O)c3cccc(O)c23)[C@H](O)[C@@H](O)[C@@H]1O get here?
class 0

Just curious, what result did O=C(O[C@H]1[C@@H]2C=CO[C@@H](O[C@@H]3O[C@H](CO)[C@@H](O)[C@H](O)[C@H]3O)[C@@H]2[C@@]2(CO)O[C@@H]12)c1ccc(O)c(O)c1 get here?
class 0

Just curious, what result did CC1=C2CC3OC3(C)CCC3OC3(C)CC2OC1=O (stereo unspecified) get here?
class 0

Just curious, what result did CC(=O)O[C@H]1[C@H](C)[C@@H](O)[C@H]2[C@@H]1C=C(C(=O)O)[C@H]1C[C@@H]3[C@H]([C@H]21)[C@H]1C(=O)O[C@@H]2CC[C@@]3(C)O[C@]1(O)[C@@H]2C get here?
class 0

Just curious, what result did Cc1onc(-c2ccccc2)c1C(=O)N[C@@H]1C(=O)N2[C@@H]1SC(C)(C)[C@@H]2C(=O)O get here?
class 0

----------
- Test system: CP335
- METHOD_DESCRIPTION: qHTS profiling for inhibitors of Plasmodium falciparum proliferation (AID 504749); further: nearly all actives have a fitted effect of over 60% in size
- CONDITION_DESCRIPTION: P. falciparum in erythrocytes, SYBR Green DNA, 72 h; series mostly up to 28.7 µM
Inconclusive results are not listed. The source made the active and inactive calls. Calls come from the whole dose curve; as a rule, active = well fitted inhibition curve with a large enough effect; inconclusive = small, poorly fitted or top-dose-only effect; inactive = flat fitted curve, though single readings scatter.
Result category, one only: active, inactive

Answered cases to consult:
CC(C)=O :: inactive
CC(C)N=c1cc2n(-c3ccc(Cl)cc3)c3ccccc3nc-2cc1Nc1ccc(Cl)cc1 :: active
CCOC(=O)C1=C(C)NC(C)=C(C(=O)OCC)C1c1ccccc1C=CC(=O)OC(C)(C)C :: active
O=S(=O)(O)c1ccc2c(N=Nc3ccc(S(=O)(=O)O)c4ccccc34)c(O)c(S(=O)(=O)O)cc2c1 :: inactive
O=S(=O)(O)O :: inactive
CCCCCCCCCCCCCC[n+]1ccc(C)cc1 :: active

Just curious, what result did Cc1c(C)c2c(c(C)c1O)CC[C@@](C)(CCC[C@@H](C)CCC[C@@H](C)CCCC(C)C)O2 get here?
inactive

Just curious, what result did Nc1c(N=Nc2ccc(-c3ccc(N=Nc4cc(S(=O)(=O)O)c5ccccc5c4N)cc3)cc2)cc(S(=O)(=O)O)c2ccccc12 get here?
inactive

Just curious, what result did C[C@]12CCC(=O)C=C1CC[C@@H]1[C@@H]2[C@@H](O)C[C@@]2(C)[C@H]1CC[C@]2(O)C(=O)COP(=O)(O)O get here?
inactive

Just curious, what result did CC[N+](C)(C)Cc1ccccc1Br get here?
inactive

Just curious, what result did CC(O)CO (configuration not stated) get here?
inactive

Just curious, what result did CCOC(C)=O get here?
inactive

Just curious, what result did CN1C(=O)CN2CCc3ccccc3C2c2cc(Cl)ccc21 (configuration not stated) get here?
inactive

Just curious, what result did C#CCOc1ccc2c(C)cc(=O)oc2c1 get here?
inactive

Just curious, what result did Cc1ccccc1OCC(O)CNCCOc1ccc(C(N)=O)cc1 (configuration not stated) get here?
inactive

Just curious, what result did CC(NNC(=O)c1ccccc1)c1ccccc1 (configuration not stated) get here?
inactive

Just curious, what result did CCNC(=O)[C@@H]1CCCN1C(=O)[C@H](CCCN=C(N)N)NC(=O)[C@H](CC(C)C)NC(=O)[C@@H](Cc1c[nH]c2ccccc12)NC(=O)[C@H](Cc1ccc(O)cc1)NC(=O)[C@H](CO)NC(=O)[C@H](Cc1c[nH]c2ccccc12)NC(=O)[C@H](Cc1cnc[nH]1)NC(=O)[C@@H]1CCC(=O)N1 get here?
active

Just curious, what result did C=CCSSSCC=C get here?
inactive

Just curious, what result did CC1=C(/C=C/C(C)=C/C=C/C(C)=C/C=C/C=C(C)/C=C/C=C(C)/C=C/C2=C(C)CCCC2(C)C)C(C)(C)CCC1 get here?
inactive

Just curious, what result did O=C(COc1ccc(Cl)cc1)OCCNC12CC3CC(CC(C3)C1)C2 get here?
inactive

Just curious, what result did CCOc1ccc(N=Nc2ccc(N)cc2N)cc1 get here?
inactive

Just curious, what result did COc1ccc2c3c1O[C@H]1C[C@@H](O)C=C[C@@]31CCN(C)C2 get here?
inactive

Just curious, what result did CC(C)(C)C(=O)OCOC(=O)[C@@H]1N2C(=O)[C@@H](N=CN3CCCCCC3)[C@H]2SC1(C)C get here?
inactive

Just curious, what result did CCCCC(CC)COC(=O)CC(C(=O)OCC(CC)CCCC)S(=O)(=O)O (configuration not stated) get here?
inactive

Just curious, what result did CC1(C)S[C@@H]2[C@H](NC(=O)[C@@H](NC(=O)N3CCNC3=O)c3ccccc3)C(=O)N2[C@H]1C(=O)O get here?
inactive

Just curious, what result did NC1C2CN(c3nc4c(cc3F)c(=O)c(C(=O)O)cn4-c3ccc(F)cc3F)CC12 (configuration not stated) get here?
active

Just curious, what result did CCCCC/C=C\C/C=C\CCCCCCCC(=O)O get here?
inactive

Ref: PubChem BioAssay (NCATS)
